- ASSAY SYSTEM: human GLP-1 receptor (human, UniProt P43220 24-463)
- PROCEDURE TEXT: cell-based or functional assay
Starred links: 1 amine or outer side, 2 acyl side, 3 side chain; linkers in the order of their positions; H or OH if unused. Non-standard residues stand in square brackets, D forms with d. Groups on a side chain read outwards from the residue. *: point of attachment. C20 diacid = O=C(O)CCCCCCCCCCCCCCCCCCC(=O)*; C18 diacid = O=C(O)CCCCCCCCCCCCCCCCC(=O)*; γGlu = O=C(O)[C@H](CCC(=O)[*:2])N[*:1]; AEEA = NCCOCCOCC(=O)O; Aib = CC(C)(N)C(=O)O
MEASUREMENT KIND: Human GLP-1R potency [EC50 (pM)]
Numbers only, in pM.

Use these answered entries as a reference point.
* Compound 0057 (peptide) peptide: H[Aib]EGTFTSDVSSYLEGQAAK([AEEA-AEEA-γGlu-C18 diacid])EFIAWLVRGRGGQEK([AEEA-AEEA-γGlu-C18 diacid])GQEPEASELSTAALGRLSAELHELATLPRTETGSGSP-NH2 | 59
* Compound 0191 (peptide) peptide: H[Aib]EGTFTSDVSSYLEGQAAREFIAWLVRGRGQEPK([AEEA-AEEA-γGlu-C18 diacid])GQAPASRLSTEALGRLSAELHELATLPRTETGSGSP-NH2 | 5.9
* Compound 0439 (not fully specified (residue 21)) peptide: H[Aib]EGTFTSDVSSYLEEQAARKFIEWLVRGRGEASELSTAALGRLSAELHELATLPRTETGSGSP-NH2 | 8.3

Please report Human GLP-1R potency [EC50 (pM)] for the following binder: Compound 0094 (peptide) peptide: H[Aib]EGTFTSDVSSYLEGQAAK([AEEA-AEEA-γGlu-C20 diacid])EFIAWLVRGRGGGGGGGGGEASELSTAALGRLSAELHELATLPRTETGSGSP-NH2
7.5

Where these numbers come from: patent US20260132182A1
